Measured half-life at 2 μM, listed per entry.
EXPERIMENTAL DETAILS: GI S9 stability (Ex. Z), rat intestinal S9
Assay type: in vitro ADME
PARTICULARS: pooled intestinal S9 fractions; rat intestinal S9, 1.0 mg/mL protein, 2 μM substrate, pH 7.4; read-out: GIS9 Rat T½ (per Ex. Z)
Write the number in min without appending the unit.

CC1(CC(=O)OC[C@@]2(C#N)O[C@@H](c3ccc4c(N)ncnn34)[C@H](O)[C@@H]2O)CCC1	31
CC1(C(=O)OC[C@@]2(C#N)O[C@@H](c3ccc4c(N)ncnn34)[C@H](O)[C@@H]2O)CC1	23

Entry under review: `CC(C)(C)CC(=O)OC[C@@]1(C#N)O[C@@H](c2ccc3c(N)ncnn23)[C@H](O)[C@@H]1O` . Reported half-life at 2 μM?
185

Item under review: `CCC(CC)C(=O)OC[C@@]1(C#N)O[C@@H](c2ccc3c(N)ncnn23)[C@H](O)[C@@H]1O` . Reported half-life at 2 μM?
23
